Target: MASP-2 CCP2-SP (Homo sapiens (Human), UniProt O00187)
Sequence (O00187 445-686): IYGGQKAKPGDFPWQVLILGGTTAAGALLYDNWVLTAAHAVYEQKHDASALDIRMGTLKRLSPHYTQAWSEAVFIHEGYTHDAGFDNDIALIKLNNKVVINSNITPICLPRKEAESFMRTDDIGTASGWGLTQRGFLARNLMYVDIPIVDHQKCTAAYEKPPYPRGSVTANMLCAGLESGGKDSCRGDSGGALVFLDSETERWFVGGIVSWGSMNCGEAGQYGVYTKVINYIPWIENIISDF
Sequence (O00187 364-432 partner): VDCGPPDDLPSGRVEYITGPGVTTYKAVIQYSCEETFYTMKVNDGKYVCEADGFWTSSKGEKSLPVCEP
Test: MASP-2 co-crystallization, X-ray crystallography and structure analysis (H-bonds, van der Waals contacts)
Conditions: Table A1 (H-Bonds); SER 654 O
Counter-ions that a name gives are not always drawn.
Kindly state H-bond distance to MASP-2 SER 654 atom O for each of the entries shown.
One number for each entry.

Here is how some molecules turned out for H-bond distance to MASP-2 SER 654 atom O.
{"molecule": "Cc1nc(N)ccc1CNC(=O)[C@H](C)NC(=O)[C@H]1C[C@@H](c2ccccc2)CCN1 [compound 1253, Dihydrochloride]", "readout": "H-bond distance to MASP-2 SER 654 atom O", "value-observed": 2.99}
{"molecule": "C[C@H](NC(=O)[C@H]1C[C@H](c2ccccc2)CN1)C(=O)NCc1ccc(N)nc1", "readout": "H-bond distance to MASP-2 SER 654 atom O", "value-observed": 2.93}
{"molecule": "C[C@H](NC(=O)[C@H]1C[C@H](Cc2ccccc2)CN1)C(=O)NCc1cnc2[nH]cc(Cl)c2c1", "readout": "H-bond distance to MASP-2 SER 654 atom O", "value-observed": 2.81}
{"molecule": "C[C@H](NC(=O)[C@H]1Cc2c([nH]c3ccccc23)CN1)C(=O)NCc1ccc(C(=N)N)cc1", "readout": "H-bond distance to MASP-2 SER 654 atom O", "value-observed": 2.81}

State recorded H-bond distance to MASP-2 SER 654 atom O for all listed molecules.
1. C[C@H](NC(=O)c1cc(-c2ccccc2)c[nH]1)C(=O)NCc1ccc(C(=N)N)cc1
2. Cc1nc(N)ccc1CNC(=O)[C@H](C)NC(=O)[C@H]1C[C@H](Cc2ccccc2)CN1

[out]
2.82
2.97

State recorded H-bond distance to MASP-2 SER 654 atom O for all listed molecules.
1. C[C@H](NC(=O)[C@H]1C[C@H](Cc2ccccc2)CN1)C(=O)NCc1cnc2c(c1)c(Cl)cn2C [compound 1450, Dihydrochloride]
2. C[C@H](NC(=O)[C@H]1C[C@@H](c2ccccc2)CN1)C(=O)NCc1ccc2c(N)nccc2c1
3. C[C@H](NC(=O)C1C[C@@H](c2ccccc2)CCN1)C(=O)NCc1ccc(C(=N)N)cc1 (stereo in doubt)
4. C[C@H](NC(=O)[C@@H](CCc1ccccc1)NCCCc1ccc(O)cc1)C(=O)NCc1ccc(C(=N)N)cc1

[out]
1. 2.97
2. 2.93
3. 2.94
4. 2.84

State recorded H-bond distance to MASP-2 SER 654 atom O for all listed molecules.
1. C[C@H](NC(=O)[C@H]1C[C@H](c2ccccc2)CN1)C(=O)NCc1ccc2c(N)nccc2c1
2. Cc1nc(N)ccc1CNC(=O)[C@H](C)NC(=O)[C@H]1C[C@H](Cc2cc(-c3ccccc3)cs2)CN1 [compound 1399, Dihydrochloride]
3. C[C@H](NC(=O)[C@H](N)CCc1ccccc1)C(=O)NCc1ccc(N)nc1
4. N=C(N)c1ccc(CNC(=O)[C@@H]2CCN2C(=O)[C@H](NCC(=O)O)C2Cc3ccccc3C2)cc1

[out]
1: 2.96; 2: 3.04; 3: 2.94; 4: 2.84
